All figures here come from patent US12139487B2.

The compounds below have reported IC50 for BRM (Homo sapiens).
endpoint name: IC50 (nM)

compound=C#Cc1ccc2c(n1)N(c1ccc3cnc(CNC(=O)c4cc(F)c5c(c4)S(=O)(=O)[C@@H](F)CCO5)cc3n1)CCO2 value_measured=3.9
compound="COc1nc(C)ccc1-c1ccc2cnc(CNC(=O)c3cc(F)c4c(c3)S(=O)(=O)[C@@H](F)CCO4)cc2n1 [Compound 193]" value_measured=5.9
compound="O=C(NCc1cc2nc(N3CCOc4cc(N5CC6CC6C5)cnc43)ccc2cn1)c1cc(F)c2c(c1)S(=O)(=O)[C@@H](F)CCO2 (stereo partly shown)" value_measured=9.1
compound=O=C(NCc1cc2nc(-c3cccc([C@H]4CC4(F)F)n3)ccc2cn1)c1cc(F)c2c(c1)S(=O)(=O)[C@@H](F)CCO2 value_measured=8
compound=O=C(NCc1cc2nc(N3CCOc4cc([C@H]5CC5(F)F)cnc43)ccc2cn1)c1cc(F)c2c(c1)S(=O)(=O)[C@@H](F)COC2 value_measured=4
compound=O=C(NCc1cc2nc(N3CCOc4cc(N5CCC5)cnc43)ccc2cn1)c1cc(F)c2c(c1)S(=O)(=O)[C@@H](F)COC2 value_measured=2.3
compound=O=C(NCc1cc2cc(-c3cncc(C4CC4)n3)ccc2cn1)c1cc(F)c2c(c1)S(=O)(=O)[C@@H](F)CCO2 value_measured=7.2
compound=COc1cnc2c(c1)OCCN2c1ccc2cnc(CNC(=O)c3cc(F)c4c(c3)S(=O)(=O)[C@@H](F)CCO4)cc2n1 value_measured=2.7
compound=O=C(NCc1cc2nc(N3CCOc4cc(N5C[C@@H](F)[C@H](F)C5)cnc43)ccc2cn1)c1cc(Cl)c2c(c1)S(=O)(=O)[C@@H](F)COC2 value_measured=4.1
compound=Cc1cc2c(-c3ccc4cnc(CNC(=O)c5cc(F)c6c(c5)S(=O)(=O)[C@@H](F)CCO6)cc4n3)cccc2n1C value_measured=5.1
compound=O=C(NCc1cc2nc(N3CCOc4cc(N5CCC[C@H](F)C5)cnc43)ccc2cn1)c1cc(F)c2c(c1)S(=O)(=O)[C@@H](F)CCO2 value_measured=9.6
compound=O=C(NCc1cc2nc(N3CCOc4ccc(N5CC(F)C5)nc43)ccc2cn1)c1cc(F)c2c(c1)S(=O)(=O)[C@@H](F)COC2 value_measured=2.6
compound=O=C(NCc1cc2nc(-c3cccc(C4CC4)n3)ccc2cn1)c1cc(F)c2c(c1)S(=O)(=O)[C@@H](F)COC2 value_measured=4

====

Target or system BRG-1 (Homo sapiens): recorded pIC50 listed per item.
pIC50: −log10 of the molar value.
endpoint name: pIC50

structure_string=O=C(NCc1cc2nc(N3CCOc4ccc([C@H](F)CF)nc43)ccc2cn1)c1cc(F)c2c(c1)S(=O)(=O)[C@@H](F)CCO2 endpoint_name=pIC50 value_measured=6.78
structure_string=O=C(NCc1cc2nc(N3CCOc4cc(N5C[C@@H](F)[C@H](F)C5)cnc43)ccc2cn1)c1cc(F)c2c(c1)S(=O)(=O)[C@@H](F)CCO2 endpoint_name=pIC50 value_measured=7.11
structure_string=CCO[C@@H]1CCN(c2cccc(-c3ccc4cnc(CNC(=O)c5cc(F)c6c(c5)S(=O)(=O)[C@@H](F)COC6)cc4n3)n2)C1 endpoint_name=pIC50 value_measured=7.79
structure_string=O=C(NCc1cc2cc(-c3cccc(C4CC4)n3)ccc2cn1)c1cc(F)c2c(c1)S(=O)(=O)[C@@H](F)COC2 endpoint_name=pIC50 value_measured=7.20
structure_string=C[C@H](NC(=O)c1cc(F)c2c(c1)S(=O)(=O)[C@@H](F)CCO2)c1cc2nc(N3CCOc4cc(N5CCC5)cnc43)ccc2cn1 endpoint_name=pIC50 value_measured=6.62
structure_string=O=C(NCc1cc2nc(N3CCOc4ccc(C5CC5)nc43)ccc2cn1)c1ccc2c(c1)S(=O)(=O)[C@@H](F)COC2 endpoint_name=pIC50 value_measured=7.61
structure_string=O=C(NCc1cc2nc(N3CCCc4cc(OC(F)F)cnc43)ccc2cn1)c1cc(F)c2c(c1)S(=O)(=O)[C@@H](F)CCO2 endpoint_name=pIC50 value_measured=7.14
structure_string=Cc1cnc2c(c1)OCCN2c1ccc2cnc(CNC(=O)c3cc(F)c4c(c3)S(=O)(=O)[C@@H](F)COC4)cc2n1 endpoint_name=pIC50 value_measured=7.67
structure_string=[2H]C1([2H])OC([2H])([2H])[C@H](F)S(=O)(=O)c2cc(C(=O)NCc3cc4nc(N5CCOc6ccc(C7CC7)nc65)ccc4cn3)cc(F)c21 endpoint_name=pIC50 value_measured=7.14
structure_string=C[C@@H]1CCN1c1cnc2c(c1)OCCN2c1ccc2cnc(CNC(=O)c3cc(Br)c4c(c3)S(=O)(=O)[C@@H](F)CCO4)cc2n1 endpoint_name=pIC50 value_measured=6.53
structure_string=O=C(NCc1cc2cc(N3CCOc4cc(C5CC5)cnc43)ccc2cn1)c1cc(F)c2c(c1)S(=O)(=O)[C@@H](F)COC2 endpoint_name=pIC50 value_measured=7.52
structure_string=COc1ccc(-c2ccc3cnc(CNC(=O)c4cc(Cl)c5c(c4)S(=O)(=O)[C@@H](F)COC5)cc3n2)nc1[C@@H]1CC1(F)F endpoint_name=pIC50 value_measured=6.46
structure_string=COc1cnc2c(c1)CCCN2c1ccc2cnc(CNC(=O)c3cc(F)c4c(c3)S(=O)(=O)[C@@H](F)CCO4)cc2n1 endpoint_name=pIC50 value_measured=7.03
structure_string=O=C(NCc1cc2nc(N3CCOc4cc(N5CCC5)cnc43)ccc2cn1)c1ccc2c(c1)S(=O)(=O)[C@@H](F)CCO2 endpoint_name=pIC50 value_measured=7.12
structure_string=CO[C@H](C)COc1ccc2c(c1)N(c1ccc3cnc(CNC(=O)c4cc(F)c5c(c4)S(=O)(=O)[C@@H](F)CCO5)cc3n1)CCO2 endpoint_name=pIC50 value_measured=7.51
structure_string=O=C(NCc1cc2nc(N3CCOc4cc(N5CC[C@H](F)[C@@H](F)C5)cnc43)ccc2cn1)c1cc(F)c2c(c1)S(=O)(=O)[C@@H](F)CCO2 endpoint_name=pIC50 value_measured=7.06
structure_string=O=C(NCc1cc2nc(N3CCOc4cc(N5CC(F)C5)cnc43)ccc2cn1)c1cc(F)c2c(c1)S(=O)(=O)[C@@H](F)COC2 endpoint_name=pIC50 value_measured=7.41
structure_string=O=C(NCc1cc2nc(N3CCCc4cc(N5CCOCC5)cnc43)ccc2cn1)c1cc(F)c2c(c1)S(=O)(=O)[C@@H](F)CCO2 endpoint_name=pIC50 value_measured=7.13
structure_string=C[C@@H]1CN(c2cccc(-c3ccc4cnc(CNC(=O)c5cc(Cl)c6c(c5)S(=O)(=O)[C@@H](F)COC6)cc4n3)n2)C[C@H](C)O1 endpoint_name=pIC50 value_measured=7.46
structure_string=Cc1ccc(-c2ccc3cnc(CNC(=O)c4cc(F)c5c(c4)S(=O)(=O)[C@@H](F)COC5)cc3n2)c(OC(F)F)n1 endpoint_name=pIC50 value_measured=7.24
structure_string=COc1cccc(-c2ccc3cnc(CNC(=O)c4cc(F)c5c(c4)S(=O)(=O)[C@@H](F)COC5)cc3n2)n1 endpoint_name=pIC50 value_measured=6.76
structure_string=COc1nc(C(F)F)ccc1-c1ccc2cnc(CNC(=O)c3ccc4c(c3)S(=O)(=O)[C@@H](F)CO[C@H]4C)cc2n1 endpoint_name=pIC50 value_measured=7.07
structure_string=O=C(NCc1cc2nc(N3CCOc4ccc(C5CC5)nc43)ccc2cn1)c1cc(F)c2c(c1)S(=O)(=O)[C@@H](F)CCO2 endpoint_name=pIC50 value_measured=6.91
structure_string=O=C(NCc1cc2nc(-c3cccc(C4CC4)n3)ccc2cn1)c1cc(Cl)c2c(c1)S(=O)(=O)[C@@H](F)COC2 endpoint_name=pIC50 value_measured=6.46
structure_string=COc1nc([C@@H](F)CF)ccc1-c1ccc2cnc(CNC(=O)c3cc(F)c4c(c3)S(=O)(=O)[C@@H](F)CCO4)cc2n1 endpoint_name=pIC50 value_measured=6.90
